Data origin, for the record: patent US11649460B2

The entries below come with measured IC50 values attached.
# Test system: HT-29 human colorectal adenocarcinoma
# experiment: SRB cell proliferation (cytotoxicity) assay, HT-29
# test conditions: read-out: IC50: Concentration to inhibit 50% of cell growth; HT-29
Write the value in µM as a bare number.

// solved cases for IC50 follow
INSERT INTO assay_data (molecule, experimental_value) VALUES
  ('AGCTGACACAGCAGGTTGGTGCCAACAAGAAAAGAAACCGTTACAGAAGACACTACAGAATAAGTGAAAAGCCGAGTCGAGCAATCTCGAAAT (nucleic acid, chemistry not given here) DNA: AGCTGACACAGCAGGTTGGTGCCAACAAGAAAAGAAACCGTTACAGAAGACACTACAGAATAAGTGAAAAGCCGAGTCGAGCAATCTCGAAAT', 25.1),
  ('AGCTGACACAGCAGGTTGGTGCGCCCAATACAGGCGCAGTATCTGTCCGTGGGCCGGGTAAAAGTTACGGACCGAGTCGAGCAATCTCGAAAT (nucleic acid, chemistry not given here) DNA: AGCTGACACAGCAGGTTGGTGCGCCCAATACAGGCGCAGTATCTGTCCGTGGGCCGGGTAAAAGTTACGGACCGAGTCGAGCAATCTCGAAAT', 14.6),
  ('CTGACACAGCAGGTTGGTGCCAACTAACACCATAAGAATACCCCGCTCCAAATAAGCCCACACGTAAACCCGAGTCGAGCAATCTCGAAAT (nucleic acid, chemistry not given here, DNA aptamer that recognizes human galectin-1) DNA: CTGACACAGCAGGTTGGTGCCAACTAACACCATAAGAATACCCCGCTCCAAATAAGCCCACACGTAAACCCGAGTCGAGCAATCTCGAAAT', 13.5);

Next, consider the following molecule.
Asked: Item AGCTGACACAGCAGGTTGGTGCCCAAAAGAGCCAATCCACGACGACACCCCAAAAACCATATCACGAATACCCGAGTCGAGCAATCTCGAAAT (nucleic acid, chemistry not given here) DNA: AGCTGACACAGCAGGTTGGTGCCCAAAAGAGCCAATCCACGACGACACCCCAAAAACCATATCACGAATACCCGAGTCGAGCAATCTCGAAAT has what recorded IC50?
Given back: 20.4
